A collection of molecules and their measured TGI
tested on: HT29 colon; assay: NCI tumour cell line growth inhibition, 48 h
All answers are understood in µM, so give the number only.

{"Mol Smiles": "O=C(C[C@@H](C(=O)NCc1cccc(C(F)(F)F)c1)N1C(=O)[C@@H](N2C(=O)OC[C@@H]2c2ccccc2)[C@H]1/C=C/c1ccccc1)NC1CCN(Cc2ccccc2)CC1", "TGI (µM)": 3.53}

Qu. Identify the measured TGI of Clc1ccc2c(NCCCCN=Cc3ccccc3)ccnc2c1 for HT29 colon.
Ans. 21.6

----------
A collection of molecules and their measured TGI
test system: RXF 393 renal; test: NCI tumour cell line growth inhibition, 48 h
All answers are understood in µM, so give the number only.

{"Molecule": "CCc1nc2ccccc2c(=O)n1/N=C(\\N=Nc1ccc(Cl)cc1)c1ccccc1Cl", "Attribute Measured": "TGI", "Readout Unit": "µM", "Result Number": 72.5}
{"Molecule": "CSc1ccc(C2C(Cl)C(=O)N2NC(=O)c2c(Cl)c(Cl)c(Cl)c(Cl)c2-c2nc3ccccc3[nH]2)cc1 (stereo unspecified)", "Attribute Measured": "TGI", "Readout Unit": "µM", "Result Number": 5.01}
{"Molecule": "O=C(CCCSc1nc(-c2ccc(Cl)cc2)cc(-c2ccc(Cl)cc2)n1)NO", "Attribute Measured": "TGI", "Readout Unit": "µM", "Result Number": 1.86}

Qu. Requested read-out: TGI. Entry: Clc1cccc(Cl)c1C1SCC2=Nc3ccccc3CN21 (stereo unspecified)
Ans. 56.6

Qu. Requested read-out: TGI. Entry: O=P(c1ccccc1)(c1ccccc1)C(NCc1ccccc1)c1ccc(F)cc1 (stereo unspecified)
Ans. 28.3

Qu. Requested read-out: TGI. Entry: COc1cc2c3c(n(CCCBr)c(=O)c2cc1OC)-c1ccc(NC(C)=O)cc1C3=O
Ans. 38.2

Qu. Requested read-out: TGI. Entry: CC12CCCC(CC(=O)c3[nH]c4ccccc4c31)C2 (stereo unspecified)
Ans. 4.88

Qu. Requested read-out: TGI. Entry: CCN(CC)Cc1cc(Nc2ccnc3ccc4c(nnn4C)c23)ccc1O
Ans. 30.6
